Tested on: LoVo
Method Description: Cytotoxicity against human doxorubicin resistant LoVo cells after 48 hrs by SRB assay
Type: functional
I'd be grateful if you could share measured TGI for these entries.
# unit: nM | format: bare number

Documented TGI of C/C=C1\NC(=O)[C@H](Cc2ccccc2)NC(=O)[C@@H](C(C)C)NC(=O)[C@@H]([C@@H](C)CC)NC(=O)[C@H](NC(=O)[C@H](NC(=O)[C@H](CCCN)NC(=O)[C@H]2CCCN2C(=O)[C@H](NC(=O)[C@@H](NC(=O)[C@@H](NC(=O)[C@H](NC(=O)CCCC(C)C)[C@@H](C)O)[C@@H](C)O)C(C)C)C(C)C)[C@@H](C)CC)[C@@H](C)OC(=O)[C@H](C(C)C)NC1=O : 327

Entry C/C=C1\NC(=O)[C@H](Cc2ccccc2)NC(=O)[C@@H](C(C)C)NC(=O)[C@@H]([C@H](C)CC)NC(=O)[C@H](NC(=O)[C@H](NC(=O)[C@H](CCCN)NC(=O)[C@H]2CCCN2C(=O)[C@H](NC(=O)[C@@H](NC(=O)[C@@H](NC(=O)[C@H](NC(=O)CC(C)C)C(C)C)[C@@H](C)O)C(C)C)C(C)C)[C@H](C)CC)[C@H](C)OC(=O)[C@H](C(C)C)NC1=O , TGI reported as 1390

Form field TGI, entry C/C=C1\NC(=O)[C@H](Cc2ccccc2)NC(=O)[C@@H](C(C)C)NC(=O)[C@@H]([C@H](C)CC)NC(=O)[C@H](NC(=O)[C@H](NC(=O)[C@H](CCCN)NC(=O)[C@H]2CCCN2C(=O)[C@H](NC(=O)[C@@H](NC(=O)[C@@H](NC(=O)[C@@H](CC2CCCCC2)NC(=O)CCCC(C)C)[C@@H](C)O)C(C)C)C(C)C)[C@H](C)CC)[C@H](C)OC(=O)[C@H](C(C)C)NC1=O : 746

----------
Test system: A549
Method Description: Cytotoxicity against human A549 cells after 48 hrs by SRB assay
Assay type: functional, cell-based
Test Settings: Homo sapiens, A549, 48 h; read-out: GI50
Provide the reported GI50 of each item.
Write the answer as a number in µM, unit excluded.

Measured GI50 (A549), entry C/C=C1\NC(=O)[C@H](Cc2c(F)c(F)c(F)c(F)c2F)NC(=O)[C@@H](C(C)C)NC(=O)[C@@H]([C@H](C)CC)NC(=O)[C@H](NC(=O)[C@H](NC(=O)[C@H](CCCN)NC(=O)[C@H]2CCCN2C(=O)[C@H](NC(=O)[C@@H](NC(=O)[C@@H](NC(=O)[C@H](NC(=O)CC[C@@H](C)CC)C(C)C)[C@@H](C)O)C(C)C)C(C)C)[C@H](C)CC)[C@H](C)OC(=O)[C@H](C(C)C)NC1=O : 1.85

Tested on A549: C/C=C1\NC(=O)[C@H](Cc2ccccc2)NC(=O)[C@@H](C(C)C)NC(=O)[C@@H]([C@H](C)CC)NC(=O)[C@H](NC(=O)[C@H](NC(=O)[C@H](CCCN)NC(=O)[C@H]2CCCN2C(=O)[C@H](NC(=O)[C@@H](NC(=O)[C@@H](NC(=O)[C@H](NC(=O)CCCCCCC)C(C)C)[C@@H](C)O)C(C)C)C(C)C)[C@H](C)CC)[C@H](C)OC(=O)[C@H](C(C)C)NC1=O . Observed GI50: 1.05

Considering C/C=C1\NC(=O)[C@H](Cc2ccccc2)NC(=O)[C@@H](C(C)C)NC(=O)[C@@H]([C@H](C)CC)NC(=O)[C@H](NC(=O)[C@H](NC(=O)[C@H](CCCNC(=O)/C=C/CCC)NC(=O)[C@H]2CCCN2C(=O)[C@H](NC(=O)[C@@H](NC(=O)[C@@H](NC(=O)[C@H](NC(=O)CCCC(C)C)C(C)C)[C@@H](C)O)C(C)C)C(C)C)[C@H](C)CC)[C@H](C)OC(=O)[C@H](C(C)C)NC1=O , its GI50 with A549 was recorded as 0.619

----------
Tested on: PANC-1
Method Description: Cytotoxicity against human PANC1 cells after 48 hrs by SRB assay
Format: functional
Test Settings: PANC-1, 48 h, read-out: LC50 (the source's name)
Measured Quantity: CC50 (nM)
Just the number please, in nM, no unit attached.

// CC50 lookup, compound = C/C=C1\NC(=O)[C@H](Cc2ccccc2)NC(=O)[C@@H](C(C)C)NC(=O)[C@@H]([C@H](C)CC)NC(=O)[C@H](NC(=O)[C@H](NC(=O)[C@H](CCCN)NC(=O)[C@H]2CCCN2C(=O)[C@H](NC(=O)[C@@H](NC(=O)[C@H](CCC(N)=O)NC(=O)[C@H](NC(=O)CCCC(C)C)C(C)C)C(C)C)C(C)C)[C@H](C)CC)[C@H](C)OC(=O)[C@H](C(C)C)NC1=O , result: 1740

Reported CC50 of C/C=C1\NC(=O)[C@H](c2ccccc2)NC(=O)[C@@H](C(C)C)NC(=O)[C@@H]([C@H](C)CC)NC(=O)[C@H](NC(=O)[C@H](NC(=O)[C@H](CCCN)NC(=O)[C@H]2CCCN2C(=O)[C@H](NC(=O)[C@@H](NC(=O)[C@@H](NC(=O)[C@H](NC(=O)CCCC(C)C)C(C)C)[C@@H](C)O)C(C)C)C(C)C)[C@H](C)CC)[C@H](C)OC(=O)[C@H](C(C)C)NC1=O : 1660

Sample C/C=C1\NC(=O)[C@H](Cc2ccc(-c3ccccc3)cc2)NC(=O)[C@@H](C(C)C)NC(=O)[C@@H]([C@H](C)CC)NC(=O)[C@H](NC(=O)[C@H](NC(=O)[C@H](CCCN)NC(=O)[C@H]2CCCN2C(=O)[C@H](NC(=O)[C@@H](NC(=O)[C@@H](NC(=O)[C@H](NC(=O)CCCC(C)C)C(C)C)[C@@H](C)O)C(C)C)C(C)C)[C@H](C)CC)[C@H](C)OC(=O)[C@H](C(C)C)NC1=O ; CC50 observed: 1400

----------
Would you kindly list GI50 for each of these compounds?
Test system: A549
Method Description: Cytotoxicity against human A549 cells after 48 hrs by SRB assay
Format: functional, cell-based
Test Settings: Homo sapiens, A549, 48 h; read-out: GI50
State just the number; it will be interpreted in nM.

Just so you know, measured GI50 for C/C=C1\NC(=O)[C@H](Cc2c[nH]c3ccccc23)NC(=O)[C@@H](C(C)C)NC(=O)[C@@H]([C@H](C)CC)NC(=O)[C@H](NC(=O)[C@H](NC(=O)[C@H](CCCN)NC(=O)[C@H]2CCCN2C(=O)[C@H](NC(=O)[C@@H](NC(=O)[C@@H](NC(=O)[C@H](NC(=O)CCCC(C)C)C(C)C)[C@@H](C)O)C(C)C)C(C)C)[C@H](C)CC)[C@H](C)OC(=O)[C@H](C(C)C)NC1=O came out at 1610

The measured GI50 associated with C/C=C1\NC(=O)[C@H](Cc2ccccc2)NC(=O)[C@@H](C(C)C)NC(=O)[C@@H]([C@H](C)CC)NC(=O)[C@H](NC(=O)[C@H](NC(=O)[C@H](CCC(=O)O)NC(=O)[C@H]2CCCN2C(=O)[C@H](NC(=O)[C@@H](NC(=O)[C@@H](NC(=O)[C@H](NC(=O)CCCC(C)C)C(C)C)[C@@H](C)O)C(C)C)C(C)C)[C@H](C)CC)[C@H](C)OC(=O)[C@H](C(C)C)NC1=O reads 1090

According to the records, this compound C/C=C1\NC(=O)[C@H](Cc2ccccc2)NC(=O)[C@@H](C(C)C)NC(=O)[C@@H]([C@H](C)CC)NC(=O)[C@H](NC(=O)[C@H](NC(=O)[C@H](CCCN)NC(=O)[C@H]2CCCN2C(=O)[C@H](NC(=O)[C@@H](NC(=O)[C@@H](NC(=O)[C@H](NC(=O)CC(C)C)C(C)C)[C@@H](C)O)C(C)C)C(C)C)[C@H](C)CC)[C@H](C)OC(=O)[C@H](C(C)C)NC1=O displays GI50 of 1680

The measured GI50 associated with C/C=C1\NC(=O)[C@H](Cc2ccccc2)NC(=O)[C@@H](C(C)C)NC(=O)[C@@H]([C@H](C)CC)NC(=O)[C@H](NC(=O)[C@H](NC(=O)[C@H](CCCNC(=O)C(F)(F)F)NC(=O)[C@H]2CCCN2C(=O)[C@H](NC(=O)[C@@H](NC(=O)[C@@H](NC(=O)[C@H](NC(=O)CC[C@@H](C)CC)C(C)C)[C@@H](C)OC(=O)C(F)(F)F)C(C)C)C(C)C)[C@H](C)CC)[C@H](C)OC(=O)[C@H](C(C)C)NC1=O reads 1230

CC[C@@H](C)[C@@H](NC(=O)[C@H](CCCN)NC(=O)[C@H]1CCCN1C(=O)[C@H](NC(=O)[C@@H](NC(=O)[C@@H](NC(=O)[C@H](NC(=O)CCCC(C)C)C(C)C)[C@@H](C)O)C(C)C)C(C)C)C(=O)N[C@H]1C(=O)N[C@H]([C@H](C)CC)C(=O)N[C@H](C(C)C)C(=O)N[C@@H](Cc2ccccc2)C(=O)NCC(=O)N[C@@H](C(C)C)C(=O)O[C@H]1C yielded GI50 of 1630
